system: 422866-222-R5-J1-PDC spheroids with HUVEC/MSC, viability; test: Anticancer human tumor 422866-222-R5-J1-PDC patient-derived pancreatic adenocarcinoma cell line growth inhibition [GQUAD]; settings: second compound 3.16 µM; first compound 0.1 µM; hits give low values

{"columns": ["COMPOUND", "viability, T/C [%]"],
 "data": [
  ["CC1COCCN1c1cc(-c2ccnn2C)c2ccnc(-c3ccn[nH]3)c2n1 (stereo unspecified) + CN(C)c1ccc(Nc2c3ccc(NC(=O)CCN4CCCC4)cc3nc3cc(NC(=O)CCN4CCCC4)ccc23)cc1", 54.8],
  ["O=C(NO)c1cnc(N2CCN(S(=O)(=O)c3ccc4ccccc4c3)CC2)nc1 + CN(C)c1ccc(Nc2c3ccc(NC(=O)CCN4CCCC4)cc3nc3cc(NC(=O)CCN4CCCC4)ccc23)cc1", 94.6],
  ["O=c1[nH]cc(F)c(=O)[nH]1 + Cc1[nH]c2ccc(F)cc2c1-c1nc2c3cccnc3c3ncccc3c2[nH]1", 99.3],
  ["Nc1ccn(C2OC(CO)C(O)C2(F)F)c(=O)n1 (stereo unspecified) + CN(C)c1ccc(Nc2c3ccc(NC(=O)CCN4CCCC4)cc3nc3cc(NC(=O)CCN4CCCC4)ccc23)cc1", 67.6],
  ["O=C(NO)c1cnc(N2CCN(S(=O)(=O)c3ccc4ccccc4c3)CC2)nc1 + Cc1cnc(CNC(=O)c2c(=O)c3ccc(N4CCCN(C)CC4)nc3n3c2sc2ccccc23)cn1", 91.8],
  ["CC(C)(O)C1CCC(Nc2ccc3ncc(-c4cccc(C(F)(F)F)c4)n3n2)CC1 (stereo unspecified) + Cc1[nH]c2ccc(F)cc2c1-c1nc2c3cccnc3c3ncccc3c2[nH]1", 63.5]
]}

====

# maps each entry to its viability, T/C
tested on: 422866-222-R5-J1-PDC spheroids with HUVEC/MSC, viability; test: Anticancer human tumor 422866-222-R5-J1-PDC cell line growth inhibition [GQUAD]; settings: second compound 0.0316 µM; first compound 0.316 µM; hits give low values;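 further: spheroids exposed to compounds for seven days before reading; percent viability relative to DMSO vehicle control taken as 100%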

{"columns": ["COMPOUND", "UNIT_TEXT", "viability, T/C"],
 "data": [
  ["COc1cc(C2c3cc4c(cc3C(OC3OC5COC(C)OC5C(O)C3O)C3COC(=O)C23)OCO4)cc(OC)c1O (stereo not given) + Cc1cnc(CNC(=O)c2c(=O)c3ccc(N4CCCN(C)CC4)nc3n3c2sc2ccccc23)cn1", "%", 83.7],
  ["CC[C@@]1(O)C(=O)OCc2c1cc1n(c2=O)Cc2cc3c(CN(C)C)c(O)ccc3nc2-1 + CN(C)c1ccc(Nc2c3ccc(NC(=O)CCN4CCCC4)cc3nc3cc(NC(=O)CCN4CCCC4)ccc23)cc1", "%", 49.7],
  ["CC[C@@]1(O)C(=O)OCc2c1cc1n(c2=O)Cc2cc3c(CN(C)C)c(O)ccc3nc2-1 + Cc1[nH]c2ccc(F)cc2c1-c1nc2c3cccnc3c3ncccc3c2[nH]1", "%", 45.2],
  ["CCc1c2c(nc3ccc(O)cc13)-c1cc3c(c(=O)n1C2)COC(=O)[C@]3(O)CC + CN(C)c1ccc(Nc2c3ccc(NC(=O)CCN4CCCC4)cc3nc3cc(NC(=O)CCN4CCCC4)ccc23)cc1", "%", 47.1],
  ["Nc1ccn(C2OC(CO)C(O)C2(F)F)c(=O)n1 (stereo not given) + Cc1cnc(CNC(=O)c2c(=O)c3ccc(N4CCCN(C)CC4)nc3n3c2sc2ccccc23)cn1", "%", 69.1]
]}
